Tested on: PBMC-derived induced microglia-like cells (piMGLC)
PROTOCOL_TEXT: synaptosome phagocytic index relative to DMSO control (fraction of DMSO); higher = more phagocytosis
MEASUREMENT_PARAMETERS: concentration: 10 uM (2 uM for compounds listed in Table S2); pretreatment time: 24 h; assay time: 3 h
Counter-ions that a name gives are not always drawn.
Recorded synaptosome phagocytic index split into classes lower bin: < 0.5; middle bin: ≥ 0.5 and < 0.9; upper bin: ≥ 0.9

Record excerpt, results attached:
Ask: Categorize the following entry: Cc1nc(Nc2ncc(C(=O)Nc3c(C)cccc3Cl)s2)cc(N2CCN(CCO)CC2)n1 [Dasatinib]
Result: lower bin

Ask: # repeat for CCN(CC)Cc1ccc2cc(COC(=O)Nc3ccc(C(=O)NO)cc3)ccc2c1 [Givinostat_(hydrochloride_monohydrate)]
Result: lower bin

Ask: # repeat for COc1cc(C(=O)NCc2ccc(OCCN(C)C)cc2)cc(OC)c1OC [Trimethobenzamide_hydrochloride]
Result: upper bin

Continuing:
Ask: Categorize the following entry: N#Cc1ccc(COC[C@H]2O[C@@H](n3c(NCc4ccc(Cl)c(Cl)c4)nc4c(N)ncnc43)[C@H](O)[C@@H]2O)cc1
Result: lower bin

Ask: # repeat for COc1ccc(-c2c(C)nn3c(C(F)(F)F)cc(C)nc23)c(F)c1F
Result: upper bin

Ask: # repeat for CC1(C)O[C@@H]2[C@@H](CO[C@@]3(COS(N)(=O)=O)OC(C)(C)O[C@@H]23)O1 [Topiramate]
Result: upper bin

Ask: # repeat for O=S1(=O)N[C@H]2CCCN2c2ccccc21
Result: middle bin

Ask: # repeat for O=C1N[C@@H](Cc2cnc[nH]2)C(=O)N2CCC[C@@H]12 [Cyclo(his-pro)_(TFA)]
Result: lower bin

Ask: # repeat for CS(=O)(=O)c1ccc(C(=O)Nc2ccc(Cl)c(-c3ccccn3)c2)c(Cl)c1 [Vismodegib]
Result: upper bin

Ask: # repeat for O=C(O)Cc1ccccc1Nc1c(Cl)cccc1Cl [Diclofenac_(Sodium)]
Result: middle bin

Ask: # repeat for COc1cc2/c(=N/c3ccc(Br)cc3F)nc[nH]c2cc1OCC1CCN(C)CC1 [Vandetanib]
Result: lower bin

Ask: # repeat for COc1cc(/C=C/C(=O)NCCn2c(C)cc3ccccc32)cc(OC)c1OC
Result: middle bin

Ask: # repeat for CC(C)(C)c1cnc(CSc2cnc(NC(=O)C3CCNCC3)s2)o1
Result: middle bin

Ask: # repeat for C[C@@]1(c2cc(NC(=O)c3ccc(C#N)cn3)ccc2F)C=CSC(N)=N1 [Atabecestat]
Result: middle bin
